- Measured On: histone deacetylase activity (HeLa nuclear extract)
- Protocol Notes: HDAC fluorescent activity assay (Biomol Fluor de Lys), HeLa nuclear extract
- Measurement Conditions: HeLa nuclear extract as HDAC source; Fluor de Lys substrate; IC50 range; read-out: Inhibitor Activity versus HDAC
pIC50: −log10 of the molar value.
Measured Metric: pIC50

Here are 8 molecules together with their reported answers.
Molecule | Result
O=C(CCCCCC(=O)N1CCc2c([nH]c3ccccc23)C12CCCCC2)NO [Example 13] | 6.00 to 6.48
O=C(CCCCCCC(=O)N1CCc2c([nH]c3ccccc23)C1C(F)(F)F)NO (stereo not shown) [Example 9] | > 6.48
COC(=O)[C@H]1Cc2c([nH]c3ccccc23)CN1C(=O)CCCCCCCC(=O)NO [Example 12] | 6.00 to 6.48
COC(=O)[C@H]1Cc2c([nH]c3ccccc23)CN1C(=O)CCCCCC(=O)NO [Example 11] | 6.00 to 6.48
O=C(CCCCCCC(=O)N1CCc2c([nH]c3ccccc23)C12CCCCC2)NO [Example 14] | > 6.48
O=C(CCCCCCCC(=O)N1Cc2[nH]c3ccccc3c2C[C@@H]1C(=O)O)NO [Example 17] | 6.00 to 6.48
COc1ccc2[nH]c3c(c2c1)CCN(C(=O)CCCCCC(=O)NO)C3 [Example 6] | > 6.48
O=C(CCCCCC(=O)N1Cc2[nH]c3ccccc3c2C[C@@H]1C(=O)O)NO [Example 15] | 6.00 to 6.48

Exam item: Find the recorded pIC50 belonging to O=C(CCCCCCC(=O)N1Cc2[nH]c3ccccc3c2C[C@@H]1C(=O)O)NO [Example 16] and report it.
Marked response: > 6.48

Exam item: Please give the measured pIC50 for this molecule: COc1ccc2[nH]c3c(c2c1)CCN(C(=O)CCCCCCCC(=O)NO)C3 [Example 7]
Marked response: > 6.48

Exam item: Consider the molecule O=C(CCCCCC(=O)N1CCc2c([nH]c3ccccc23)C1)NO [Example 2] and give its measured pIC50.
Marked response: > 6.48
